# T = intrinsic clearance, rat liver microsomes below 500 mL/min/kg (exclusive); F = intrinsic clearance, rat liver microsomes at/above 500 mL/min/kg

Some entries whose results are on file:
chemical_string: Cc1noc(NCc2cccc(-c3cccnc3)c2)n1
cat: T
--
chemical_string: O=C(c1ccc(O)nc1)N1CCN(c2ncccn2)CC1
cat: T
--
chemical_string: CCNC(=O)N1CCC2(CCc3ccccc3O2)CC1
cat: F
--
chemical_string: CC(=O)Nc1ccc(C(=O)Nc2cc(-c3cccs3)ccc2N)cc1
cat: T

Prompt line: Is intrinsic clearance, rat liver microsomes of Cc1cccc(NCCc2cc(F)cc3c2OCOC3)n1 strictly below 500 mL/min/kg?
Response line: F

Prompt line: Item COc1cc(CCNC(=O)c2nc3cccc(C)n3c2F)cc(OC)c1 : intrinsic clearance, rat liver microsomes beneath 500 mL/min/kg, strictly?
Response line: F

Prompt line: Record O=C(Nc1ccc2sccc2c1)N1CCCN(C(=O)Oc2ccccc2)CC1 : is its intrinsic clearance, rat liver microsomes strictly below 500 mL/min/kg?
Response line: F

Prompt line: Criterion: intrinsic clearance, rat liver microsomes strictly below 500 mL/min/kg. Is it met by Cc1cc(N(CCO)CCCO)ncc1Br ?
Response line: T

Prompt line: hey, is intrinsic clearance, rat liver microsomes for O=C(CCc1ccc2c(c1)OCO2)Nc1nc2c(s1)CCC2 lower than 500 mL/min/kg or not?
Response line: F

* * *

This listing pairs molecules with measured fraction unbound, rat plasma.
Give only the figure.

Reference set (2 entries):
chemical_string: Cc1ccc(NC(=O)CN2[C@H](Cc3ccccc3)C[C@]3(C)NC(=O)CCC[C@H]23)cc1F
fraction unbound, rat plasma: 0.023
--
chemical_string: C=CC(=O)Nc1cccc(Oc2nc(Nc3ccc(N4CCN(C)CC4)cc3)nc3ccsc23)c1
fraction unbound, rat plasma: 0.00491

Prompt line: Reported fraction unbound, rat plasma for CCn1c(=O)oc2cc(NC(=O)c3ccc(C(C)(C)C)cc3)ccc21 : what is it?
Response line: 0.0151

* * *

observed_property: MDR1-MDCK efflux ratio

chemical_string: O=C(/C=C\n1cnc(-c2cc(C(F)(F)F)cc(C(F)(F)F)c2)n1)NNc1ccccn1
MDR1-MDCK efflux ratio: 1.08
//
chemical_string: O=C(CN1CCSC1=O)Nc1ccccc1F
MDR1-MDCK efflux ratio: 0.739
//
chemical_string: CC1(C)[C@@H]2C[C@H]1[C@@]1(O)[C@@H](C2)Oc2c(ccc(O)c2C(=O)NCCNc2ccccn2)[C@@H]1O
MDR1-MDCK efflux ratio: 24.5

Query molecule follows.
Prompt line: Could you tell me which MDR1-MDCK efflux ratio is on file for Cc1nc(C)c(C)c(NCc2cc(-c3ccc(F)cc3)no2)n1 ?
Response line: 0.906

* * *

# key: entry, value: aqueous solubility
condition_context: pH 6.8
// note: answer is a bare numeric in µg/mL

Illustrative cases are given below, each with its answer.
chemical_string: CC(=O)Nc1cccc(OC(=O)N2CCOCC2)c1
recorded_value: 56.7
--
chemical_string: Cc1nc(Nc2ccc(F)cc2)nc2c1ncn2-c1ccc(F)cc1
recorded_value: 0.14
--
chemical_string: O=c1[nH]c2cc3ccccc3c(=O)n2c2sc3c(c12)CCCC3
recorded_value: 15.2

Prompt line: // lookup aqueous solubility for CCOC(=O)N1CCN(C(=O)Nc2cccc3c2CCCC3)CC1
Response line: 51.6

Prompt line: Query (compound): Cn1c(CNc2ccc(C(=N)N)cc2)nc2cc(C(=O)N(CCC(=O)O)c3ccccn3)ccc21 ; field requested: aqueous solubility
Response line: 4.91

Prompt line: aqueous solubility lookup needed for COc1cc2c(cc1OC)CN(CN1C(=O)c3cccc4cccc1c34)CC2 , thanks.
Response line: 53.4

Prompt line: Field request: aqueous solubility | item: CC(C)NC(=O)c1cn(-c2ccccc2)nc1-c1ccccc1
Response line: 0.22

Prompt line: Requested read-out: aqueous solubility. Entry: COCCc1nc(-c2ccccc2-c2ccccc2)n(CCO)n1
Response line: 26.4

Prompt line: I would be grateful if you could share the reported aqueous solubility for Cc1ccc(C(=O)NC2CCN(CC#N)CC2)cc1Br .
Response line: 2.04

Prompt line: Recorded aqueous solubility of Cc1ccc(S(=O)(=O)NC(=O)c2c(C)cc3n2CCn2c(C)ccc2-3)cc1 , please.
Response line: 33.1

Prompt line: Quick one: aqueous solubility for Cc1ccc(Cn2ccn(-c3ccc(F)c(F)c3)c(=O)c2=O)cc1 ?
Response line: 0.35

Prompt line: Given the compound Cc1nc2cc(NC(=O)Cc3c(C)nc4ccccc4c3C)ccc2o1 , what is its reported aqueous solubility?
Response line: 23.1

Prompt line: Report aqueous solubility for CCN(CC)CC(=O)N1CCC(n2c(=O)[nH]c3ccccc32)CC1 please.
Response line: 48.9

Prompt line: May I ask what aqueous solubility has been recorded for Cc1cccc(Oc2ncccc2N)c1C ?
Response line: 45.3

Prompt line: Endpoint output: aqueous solubility of O=c1[nH]c2ccccc2n1C1CCN(Cc2nc(-c3ccsc3)no2)CC1 . Value?
Response line: 5.8
